Endpoint Name: melting point

Req: Output melting point of COC(CNC(=O)c1ccc(I)cn1)OC [Compound I-9]
Resp: 178 to 180 °C

Req: Item COC(CNC(=O)c1cc(I)cc(I)c1I)OC [Compound I-1] : provide melting point
Resp: 180 to 182 °C

Req: Retrieve melting point measured for COC(CNC(=O)COc1c(I)cc(I)cc1I)OC [Compound I-10] and print it.
Resp: 170 to 171 °C

Req: Determine its reported melting point: COC(CNC(=O)c1ccc(I)cc1)OC [Compound I-6]
Resp: 156 to 158 °C

Req: Dear colleague, please send me the reported melting point for COC(CNC(=O)Cc1cc(I)cc(I)c1I)OC [Compound I-11] when you can.
Resp: 172 to 173 °C

Req: Could you please provide reported melting point for O=CCNC(=O)c1cc(I)cc(I)c1I [Compound I-8] ? Thanks!
Resp: 90 to 92 °C

Req: Look up and report measured melting point for this entry: COC(CNC(=O)c1cc(I)ccc1I)OC [Compound I-7]
Resp: 165 to 166 °C
